The following compounds are listed with their measured IC50 values.
tested.target: lipoxygenase Type I-B LOX A from Glycine max L. (soybean) (15-LOX) (Glycine max)
Construct: purchased Sigma-Aldrich (Steinheim, Germany)
Sequence (P08170 whole entry): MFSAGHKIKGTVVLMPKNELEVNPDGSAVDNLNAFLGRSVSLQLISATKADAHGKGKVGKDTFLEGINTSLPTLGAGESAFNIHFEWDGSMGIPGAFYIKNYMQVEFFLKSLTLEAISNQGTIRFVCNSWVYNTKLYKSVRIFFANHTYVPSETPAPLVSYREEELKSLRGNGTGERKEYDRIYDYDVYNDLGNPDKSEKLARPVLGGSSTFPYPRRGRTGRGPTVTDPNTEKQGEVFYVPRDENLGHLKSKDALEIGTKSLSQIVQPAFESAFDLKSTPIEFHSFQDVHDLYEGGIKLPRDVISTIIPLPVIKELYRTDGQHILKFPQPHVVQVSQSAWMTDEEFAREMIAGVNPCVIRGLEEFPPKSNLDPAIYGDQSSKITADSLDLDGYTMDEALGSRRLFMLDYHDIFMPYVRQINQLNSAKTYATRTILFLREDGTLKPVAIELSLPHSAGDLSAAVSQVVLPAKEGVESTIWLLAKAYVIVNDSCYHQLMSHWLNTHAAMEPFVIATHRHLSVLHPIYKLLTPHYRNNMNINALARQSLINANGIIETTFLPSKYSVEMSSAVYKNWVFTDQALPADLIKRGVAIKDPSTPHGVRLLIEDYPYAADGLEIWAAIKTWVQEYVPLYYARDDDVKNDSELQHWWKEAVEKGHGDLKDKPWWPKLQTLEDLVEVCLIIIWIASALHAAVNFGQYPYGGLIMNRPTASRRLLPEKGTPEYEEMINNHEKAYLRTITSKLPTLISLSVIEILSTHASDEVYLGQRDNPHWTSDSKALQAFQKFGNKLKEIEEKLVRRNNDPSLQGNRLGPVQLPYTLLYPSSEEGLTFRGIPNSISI
method: Inhibitory LOX activity assay (linoleic acid, absorbance at 234 nm)
Format: biochemical
condition: anti-LOX activity, concentration for 50% inhibition in µM, same LOX IC50 expressed in µM
Numbers only here, please. The scale is µM.

O=C(O)C1=C[C@@H](O)[C@@H](O)[C@H](O)C1 :: 5.6

Read the next record carefully.
q: Name the reported IC50 value associated with the compound `O=C(O)c1cc(O)c(O)c(O)c1`
a: 2.2

* * *

Below, each of the compounds is paired with its reported pIC50 value.
tested.target: lipoxygenase Type I-B LOX A from Glycine max L. (soybean) (15-LOX) (Glycine max)
Construct: purchased Sigma-Aldrich (Steinheim, Germany)
method: Inhibitory LOX activity assay (linoleic acid, absorbance at 234 nm)
Type: biochemical
condition: LOX Inhibition (IC50 µg/mL), soybean 15-LOX, linoleic acid substrate, borate buffer pH 8.75, 37 °C; mean ± s.d.
Field pIC50 (float): negative decimal logarithm of the concentration in molar.

O=C(O)c1cc(O)c(O)c(O)c1 [Gallic acid] :: 5.66
O=C(O)C1=C[C@@H](O)[C@@H](O)[C@H](O)C1 [Shikimic acid] :: 5.25

Read the next record carefully.
q: // fetch lipoxygenase Type I-B LOX A from Glycine max L. (soybean) (15-LOX) (Glycine max) pIC50 for COC(=O)c1cc(O)c(O)c(O)c1 [Methyl gallate]
a: 3.48
